Target: Protease (Human immunodeficiency virus 1)
Sequence (Q9YQ12 whole entry): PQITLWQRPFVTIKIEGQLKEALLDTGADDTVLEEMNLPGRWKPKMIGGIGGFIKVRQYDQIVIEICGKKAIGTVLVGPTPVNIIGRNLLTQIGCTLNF
Readout: IC50 (nM)

COC(=O)N[C@H](C(=O)Nc1cncc(F)c1CC[C@@H]1CN[C@H](COC(=O)NCC(F)(F)F)CO1)C(c1ccccc1)c1ccccc1	3.5
COC(=O)N[C@H](C(=O)Nc1ccccc1CC[C@@H]1CN[C@H](COC(N)=O)CO1)C(c1ccccc1)c1ccccc1	20
N[C@H](C(=O)Nc1cccc(F)c1CC[C@@H]1CN[C@H](COC(=O)NCC(F)(F)F)CO1)C(c1ccccc1)c1ccccc1	3.1

a = COC(=O)N[C@H](C(=O)Nc1ccccc1CC[C@@H]1CN[C@H](COC(=O)NCc2cccc(Cl)n2)CO1)C(c1ccccc1)c1ccccc1
b = N[C@H](C(=O)Nc1cccc(F)c1CC[C@@H]1CN[C@H](COC(=O)NCC(F)(F)F)CO1)[C@@H](c1ccc(F)cc1)c1cc(F)cc(F)c1
Task: Between item a and item b , which reported IC50 is smaller? When you have decided, please share the label of that item.
Output: a

====

Target: Protease (Human immunodeficiency virus 1)
Experiment: Inhibition of wild-type HIV1 protease expressed in Escherichia coli assessed as reduction in product formation preincubated for 30 mins followed by addition of Val-Ser-Gln-Asn-(beta-naphtyl)Ala-Pro-Ile-Val as substrate measured after 1 hr
Readout: IC50 (nM)

a = COC(=O)N[C@H](C(=O)Nc1cnccc1CC[C@@H]1CN[C@H](COC(=O)NCC(F)(F)F)CO1)C(c1ccccc1)c1ccccc1
b = COC(=O)N[C@H](C(=O)Nc1ccccc1CC[C@@H]1CN[C@H](COC(=O)NC(C)C)CO1)C(c1ccccc1)c1ccccc1
c = N[C@H](C(=O)Nc1cncc(F)c1CC[C@@H]1CN[C@H](COC(=O)NCC(F)(F)F)CO1)[C@@H](c1ccc(F)cc1)c1cccc(F)c1
d = N[C@H](C(=O)Nc1cccc(F)c1CC[C@@H]1CN[C@H](COC(=O)NCC(F)(F)F)CO1)[C@@H](c1ccc(F)cc1)c1cccc(F)c1
Task: Sort (4 molecules) by IC50: min first. In your reply, arrange the labels in the requested order.
Output: c, d, a, b
(c: 2.4 nM, d: 6.4 nM, a: 14 nM, b: 37 nM)

====

Assay: Clearance in rat at 1 mg/kg, iv or 5 mg/kg, po
Type: ADME, organism-based
Conditions: in vivo
Readout: clearance (mL/min/kg)

Field: example entries. Status: answers known.
COC(=O)N[C@H](C(=O)Nc1cnccc1CC[C@@H]1CN[C@H](COC(=O)NCC(F)(F)F)CO1)C(c1ccccc1)c1ccccc1	81
COC(=O)N[C@H](C(=O)Nc1ccccc1CC[C@@H]1CN[C@H](COC(N)=O)CO1)C(c1ccccc1)c1ccccc1	30

a = COC(=O)N[C@H](C(=O)Nc1ccccc1CC[C@@H]1CN[C@H](COC(=O)NCc2ccccc2F)CO1)C(c1ccccc1)c1ccccc1
b = COC(=O)N[C@H](C(=O)Nc1ccccc1CC[C@@H]1CN[C@H](COC(=O)NCc2ccc(Cl)s2)CO1)C(c1ccccc1)c1ccccc1
Task: Would you let me know which has the greater clearance value, a or b ? When you have decided, please share the label of that item.
Output: a
(a: 61 mL/min/kg, b: 33 mL/min/kg)

====

Assay: Oral bioavailability in rat at 5 mg/kg
Type: ADME, organism-based
Settings: in vivo
Readout: bioavailability (%)

COC(=O)N[C@H](C(=O)Nc1ccccc1CC[C@@H]1CN[C@H](COC(=O)NCc2ccc(Cl)s2)CO1)C(c1ccccc1)c1ccccc1	13
COC(=O)N[C@H](C(=O)Nc1ccccc1CC[C@@H]1CN[C@H](COC(=O)NC(C)C)CO1)C(c1ccccc1)c1ccccc1	33

P = COC(=O)N[C@H](C(=O)Nc1cccc(F)c1CC[C@@H]1CN[C@H](COC(=O)NCC(F)(F)F)CO1)C(c1ccccc1)c1ccccc1
Q = COC(=O)N[C@H](C(=O)Nc1ccccc1CC[C@@H]1CN[C@H](COC(=O)NCc2cccc(Cl)n2)CO1)C(c1ccccc1)c1ccccc1
Task: Would you let me know which has the greater bioavailability value, P or Q ? When you have decided, please share the label of that item.
Output: P
